# Test system: Mycobacterium tuberculosis Erdman (autoluminescent)
# assay_name: total FIC90 (Loewe) at 90% inhibition, three-drug combination (log2); higher = more antagonistic
# assay_conditions: in vitro model: cholesterol-high 0.2 mM; time point: terminal (~4-5 doublings, model-specific)
property_name: total FIC90
Reply briefly: the number, and no unit.

molecule	total FIC90
COc1nc2ccc(Br)cc2cc1[C@@H](c1ccccc1)[C@@](O)(CCN(C)C)c1cccc2ccccc12 [bedaquiline] + COc1c(N2C[C@@H]3CCCN[C@@H]3C2)c(F)cc2c(=O)c(C(=O)O)cn(C3CC3)c12 [moxifloxacin] + CO[C@H]1/C=C/O[C@@]2(C)Oc3c(C)c(O)c4c(O)c(c(/C=N/N5CCN(C6CCCC6)CC5)c(O)c4c3C2=O)NC(=O)/C(C)=C\C=C\[C@H](C)[C@H](O)[C@@H](C)[C@@H](O)[C@@H](C)[C@H](OC(C)=O)[C@@H]1C [rifapentine]	0.645
CC(=O)NC[C@H]1CN(c2ccc(N3CCOCC3)c(F)c2)C(=O)O1 [linezolid] + O=[N+]([O-])c1cn2c(n1)OC[C@@H](OCc1ccc(OC(F)(F)F)cc1)C2 [pretomanid] + CO[C@H]1/C=C/O[C@@]2(C)Oc3c(C)c(O)c4c(O)c(c(/C=N/N5CCN(C)CC5)c(O)c4c3C2=O)NC(=O)/C(C)=C\C=C\[C@H](C)[C@H](O)[C@@H](C)[C@@H](O)[C@@H](C)[C@H](OC(C)=O)[C@@H]1C [rifampicin]	0.499
CC(C)/N=c1\cc2n(-c3ccc(Cl)cc3)c3ccccc3nc-2cc1Nc1ccc(Cl)cc1 [clofazimine] + COc1c(N2C[C@@H]3CCCN[C@@H]3C2)c(F)cc2c(=O)c(C(=O)O)cn(C3CC3)c12 [moxifloxacin] + NC(=O)c1cnccn1 [pyrazinamide]	0.272
CC[C@@H](CO)NCCN[C@@H](CC)CO [ethambutol] + COc1c(N2C[C@@H]3CCCN[C@@H]3C2)c(F)cc2c(=O)c(C(=O)O)cn(C3CC3)c12 [moxifloxacin] + CO[C@H]1/C=C/O[C@@]2(C)Oc3c(C)c(O)c4c(O)c(c(/C=N/N5CCN(C6CCCC6)CC5)c(O)c4c3C2=O)NC(=O)/C(C)=C\C=C\[C@H](C)[C@H](O)[C@@H](C)[C@@H](O)[C@@H](C)[C@H](OC(C)=O)[C@@H]1C [rifapentine]	0.977
COc1c(N2C[C@@H]3CCCN[C@@H]3C2)c(F)cc2c(=O)c(C(=O)O)cn(C3CC3)c12 [moxifloxacin] + NC(=O)c1cnccn1 [pyrazinamide] + CO[C@H]1/C=C/O[C@@]2(C)Oc3c(C)c(O)c4c(O)c(c(/C=N/N5CCN(C6CCCC6)CC5)c(O)c4c3C2=O)NC(=O)/C(C)=C\C=C\[C@H](C)[C@H](O)[C@@H](C)[C@@H](O)[C@@H](C)[C@H](OC(C)=O)[C@@H]1C	1.05
COc1nc2ccc(Br)cc2cc1[C@@H](c1ccccc1)[C@@](O)(CCN(C)C)c1cccc2ccccc12 [bedaquiline] + COc1c(N2C[C@@H]3CCCN[C@@H]3C2)c(F)cc2c(=O)c(C(=O)O)cn(C3CC3)c12 [moxifloxacin] + O=[N+]([O-])c1cn2c(n1)OC[C@@H](OCc1ccc(OC(F)(F)F)cc1)C2 [pretomanid]	0.93

# get_value(readout='total FIC90', item= NNC(=O)c1ccncc1 [isoniazid] + NC(=O)c1cnccn1 [pyrazinamide] + CO[C@H]1/C=C/O[C@@]2(C)Oc3c(C)c(O)c4c(O)c(c(/C=N/N5CCN(C6CCCC6)CC5)c(O)c4c3C2=O)NC(=O)/C(C)=C\C=C\[C@H](C)[C@H](O)[C@@H](C)[C@@H](O)[C@@H](C)[C@H](OC(C)=O)[C@@H]1C [rifapentine] )
1.11
